assay-system: glucose-6-phosphate dehydrogenase-6-phosphogluconolactonase (Plasmodium falciparum 3D7)
experimental-protocol: concentration-dependent PfGluPho enzyme inhibition – biochemical, fluorescence intensity, dose response (AID 504765)
details: Recombinant PfG6PD enzyme, fluorescence intensity (NADPH)
The source made the active and inactive calls. No rule for the calls is given here.
I would appreciate it if you answered using one of these outcomes: class 1 for active, class 0 for inactive

Task item: I'd appreciate the recorded outcome for `C=CCN=c1scc(-c2ccco2)n1/N=C/c1ccc(O)c(O)c1O` from this test.
Reply: class 0

Task item: Query: recorded result category for `Cc1ccc(Cl)cc1NC1=C/C(=N\S(=O)(=O)c2cccs2)c2ccccc2C1=O` in this test
Reply: class 0

Task item: Per the assay record, what outcome was assigned to `COc1cc(-c2nnc3n2N=C(c2ccccc2)CS3)cc(OC)c1OC` ?
Reply: class 1

Task item: # fetch the recorded call for `Cn1cc(S(=O)(=O)CC(=O)N2CCc3ccccc32)c2ccccc21` here
Reply: class 0

----------
assay-system: glucose-6-phosphate dehydrogenase-6-phosphogluconolactonase (Plasmodium falciparum 3D7)
experimental-protocol: concentration-dependent PfGluPho enzyme inhibition – biochemical, fluorescence intensity, dose response (AID 504765)
details: Recombinant PfG6PD enzyme, fluorescence intensity (NADPH)
Calls of active or inactive are those of the source. The rule behind the calls is not given here.
Hello, when you answer, please use one of the following outcomes: 1.0 = active, 0.0 = inactive

Task item: Check the results log: what was the call for `N#Cc1ccc2c(=O)n(-c3ccccc3)sc2c1` ?
Reply: 1.0

Task item: How was `CCN(CC)CCNC(=O)CCCCn1c(=S)[nH]c2c([nH]c3ccc(OC)cc32)c1=O` classified in this test?
Reply: 0.0

Task item: Short answer needed: outcome of this test for `O=C1CCC[C@@H]2[C@@H](Cc3ccccc3)[C@H](N3CCN(c4ccccc4)CC3)C[C@@H]3CCN1[C@@H]32` ?
Reply: 1.0

Task item: Field: outcome | Entry: O=C(Nc1nc(-c2ccncc2)cs1)C1COc2ccccc2O1 (stereo unspecified)
Reply: 0.0

Task item: Status in this test for `CCOc1cc(NCc2ccccc2)c2ncn(C(C)C)c2c1` ?
Reply: 0.0

Task item: // return assay outcome for `COc1ccc(CCn2c(NN=C3CCCC3)nc3c2c(=O)[nH]c(=O)n3C)cc1`
Reply: 1.0

----------
assay-system: glucose-6-phosphate dehydrogenase-6-phosphogluconolactonase (Plasmodium falciparum 3D7)
experimental-protocol: concentration-dependent PfGluPho enzyme inhibition – biochemical, fluorescence intensity, dose response (AID 504765)
details: Recombinant PfG6PD enzyme, fluorescence intensity (NADPH)
The source made the active and inactive calls. The rule behind the calls is not given here.
readout-kind: IC50

Examples with answers:
>>> result("CCOC(=O)Cc1cc(=O)n2[nH]c(C(C)(C)C)cc2n1")
"7.04 µM"
>>> result("O=C1OC(c2ccc3ccccc3c2O)(c2ccc3ccccc3c2O)c2ccccc21")
"14.5 µM"
>>> result("CCOC(=O)c1c(OCC)[nH]c2c1cc(O)c1ccccc12")
"inactive"
>>> result("O=C(Cn1sc2ccccc2c1=O)Nc1ccc(Cl)cc1")
"3.26 µM"
>>> result("CCOc1cc(CNc2ccc(N3CCCC3)cc2)cc(Cl)c1OC")
"3.87 µM"

Okay, now this compound:
Task item: Look up IC50: `O=c1c2ccccc2sn1-c1ccccc1F`
Reply: 6.48 µM

----------
assay-system: glucose-6-phosphate dehydrogenase-6-phosphogluconolactonase (Plasmodium falciparum 3D7)
experimental-protocol: concentration-dependent PfGluPho enzyme inhibition – biochemical, fluorescence intensity, dose response (AID 504765)
details: Recombinant PfG6PD enzyme, fluorescence intensity (NADPH)
Exercise: for every item that follows, state its recorded pIC50.
Notebook: values listed as pIC50 are -log10 of the concentration (mol/L).

Task item: What measured pIC50 is associated with `CC1=CC(C)(C)Nc2ccc(OC(=O)CN3C(=O)c4cccc5cccc(c45)C3=O)cc21` on glucose-6-phosphate dehydrogenase-6-phosphogluconolactonase (Plasmodium falciparum 3D7)?
Reply: 5.20

Task item: Query pIC50 on glucose-6-phosphate dehydrogenase-6-phosphogluconolactonase (Plasmodium falciparum 3D7) for `COc1ccc(CN(C)S(=O)(=O)c2nnc(NC(=O)c3cccc(C)c3)s2)cc1OC`
Reply: 5.16

Task item: Notebook entry, glucose-6-phosphate dehydrogenase-6-phosphogluconolactonase (Plasmodium falciparum 3D7) assay: pIC50 of `CCc1cc(-c2n[nH]c(C)c2-c2ccccc2Cl)c(O)cc1OC` = ?
Reply: 5.12

Task item: API: value(readout=pIC50, system=glucose-6-phosphate dehydrogenase-6-phosphogluconolactonase (Plasmodium falciparum 3D7)) for record `Cc1ccc(NC(=O)c2cc(N3C(=O)C=CC3=O)ccc2N2CCOCC2)cc1`
Reply: 4.80
